TARGET UNDER TEST: rhSYK (Homo sapiens, UniProt P43405)
TEST CONTEXT: read-out: rhSYK Activity; class symbol; where two forms are listed, one symbol per form
Could you please report measured IC50 for the items listed next?

Please review the entries below; each comes with its answer.
| COMPOUND | TARGET UNDER TEST | IC50 |
| --- | --- | --- |
| Cc1cc(Nc2ncc(F)c(C3CC3)n2)cc(-c2cnc(C(C)(O)CO)s2)c1 (stereo not shown) [Ex 5-17] | rhSYK (Homo sapiens, UniProt P43405) | < 100 nM |
| OC1(c2ncc(-c3cc(Nc4nccc(C(F)(F)F)n4)ccc3OC(F)(F)F)s2)CCC1 | rhSYK (Homo sapiens, UniProt P43405) | 100 to 1000 nM |
| Cc1cc(Nc2nccc(C(F)(F)F)n2)cc(-c2cnc(C3(O)CCC(CO)CC3)s2)c1 (stereo not shown) | rhSYK (Homo sapiens, UniProt P43405) | < 100 nM |
| Oc1ccc(Nc2nccc(C(F)(F)F)n2)cc1-c1cnc(C2(O)CCC2)s1 | rhSYK (Homo sapiens, UniProt P43405) | < 100 nM |
| Cc1cc(Nc2nccc(C(F)(F)F)n2)cc(-c2cnc(C(C)(O)c3ccc(CC(=O)O)cc3)s2)c1 (single isomer, unassigned) [Example 4A-59] | rhSYK (Homo sapiens, UniProt P43405) | < 100 nM |
| OC(c1ccccc1)(c1ncc(-c2cccc(Nc3nccc(C(F)(F)F)n3)c2)s1)C(F)F (stereo not shown) | rhSYK (Homo sapiens, UniProt P43405) | 100 to 1000 nM |
| Cc1cc(Nc2nccc(C(F)(F)F)n2)cc(-c2cnc(C(C)(O)c3ccc(Br)nc3)s2)c1 (single isomer, unassigned) [Example 4A-68] | rhSYK (Homo sapiens, UniProt P43405) | < 100 nM |
| COCC(C)(O)c1ncc(-c2cc(C)cc(Nc3nccc(C(F)(F)F)n3)c2)s1 (stereo not shown) | rhSYK (Homo sapiens, UniProt P43405) | < 100 nM |
| Cc1cc(Nc2nccc(C(F)(F)F)n2)cc(-c2cnc(C(C)(O)CC(C)N)s2)c1 (stereo not shown) | rhSYK (Homo sapiens, UniProt P43405) | < 100 nM |
| Cc1cc(Nc2nccc(C(F)(F)F)n2)cc(-c2cnc(C(O)CCC#N)s2)c1 (stereo not shown) | rhSYK (Homo sapiens, UniProt P43405) | < 100 nM |

Record IC50 per entry; entries follow.
1. Cc1cc(Nc2nccc(C(F)(F)F)n2)cc(-c2cnc(C(C)(O)CO)s2)c1 (stereo not shown) [Ex 5-7]
2. Cc1cc(Nc2nccc(C(F)(F)F)n2)cc(-c2cnc(C(O)(CO)C(F)(F)F)s2)c1 (stereo not shown) [Example 6-7]
3. CC1CCCC1(O)c1ncc(-c2cccc(Nc3nccc(C(F)(F)F)n3)c2)s1 (stereo not shown)
4. Cc1ccc(Nc2nccc(C(F)(F)F)n2)cc1-c1cnc(C2(O)CCC2)s1
5. Cc1cc(Nc2nccc(C(F)(F)F)n2)cc(-c2cnc(C(C)(O)c3ccc(C(C)O)cc3)s2)c1 (stereo not shown)

1. < 100 nM
2. < 100 nM
3. < 100 nM
4. < 100 nM
5. < 100 nM

What IC50 value was documented for this compound, Cc1cc(Nc2ncc(Cl)cn2)cc(-c2cnc(C(C)(O)CO)s2)c1 (stereo not shown) [Ex 5-11] ?
100 to 1000 nM
